Target: human NHE-1 (Homo sapiens, UniProt P19634)
Sequence (P19634 whole entry): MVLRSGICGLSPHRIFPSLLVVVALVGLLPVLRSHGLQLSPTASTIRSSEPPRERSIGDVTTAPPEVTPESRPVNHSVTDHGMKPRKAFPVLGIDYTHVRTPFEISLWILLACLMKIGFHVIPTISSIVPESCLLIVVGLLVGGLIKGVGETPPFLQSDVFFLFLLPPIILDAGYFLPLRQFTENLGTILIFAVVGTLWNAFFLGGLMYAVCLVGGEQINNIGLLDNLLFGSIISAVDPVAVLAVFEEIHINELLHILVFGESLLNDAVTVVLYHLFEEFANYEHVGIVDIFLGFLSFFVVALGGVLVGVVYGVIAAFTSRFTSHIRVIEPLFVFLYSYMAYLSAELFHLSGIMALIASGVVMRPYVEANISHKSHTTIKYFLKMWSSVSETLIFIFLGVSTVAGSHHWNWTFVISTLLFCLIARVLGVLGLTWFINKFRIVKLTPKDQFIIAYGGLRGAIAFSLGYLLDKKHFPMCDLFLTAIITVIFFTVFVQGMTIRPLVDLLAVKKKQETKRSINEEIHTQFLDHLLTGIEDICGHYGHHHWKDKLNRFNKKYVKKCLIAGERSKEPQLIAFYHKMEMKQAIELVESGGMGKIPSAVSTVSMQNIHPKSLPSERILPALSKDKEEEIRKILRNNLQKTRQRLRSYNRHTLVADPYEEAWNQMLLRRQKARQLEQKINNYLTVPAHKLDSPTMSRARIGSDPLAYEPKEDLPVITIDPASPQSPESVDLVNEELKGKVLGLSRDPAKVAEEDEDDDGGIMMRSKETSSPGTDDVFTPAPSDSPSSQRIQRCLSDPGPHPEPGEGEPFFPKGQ
Assay: FLIPR assay of pHi recovery for NHE-1 inhibition
Conditions: transfected LAP-1 cell line expressing human NHE-1, BCECF pHi recovery, read-out: NHE1 inhibition IC50
Method: The inhibitory concentration IC50 for NHE-1 inhibition was determined as follows: IC50 for NHE-1 inhibition were determined in a FLIPR assay by measurement of the recovery in pHi in transfected cell lines which express human NHE-1. The assay was carried out in an FLIPR (fluorescent imaging plate reader) with black-walled 96-well microtiter plates with clear bases. […]
readoutName: IC50 (nM)
Field: numeric (nM). Do not append units.

# input What measured IC50 is associated with Cc1cc(Oc2ccc(S(C)(=O)=O)c(S(F)(F)(F)(F)F)c2)c(S(C)(=O)=O)cc1C(=O)N=C(N)N on human NHE-1 (Homo sapiens, UniProt P19634)?
# output 33
